- assayed.target: beta-catenin/TCF4 engagement (Homo sapiens)
- Construct: expressed in transfected cells; host or cells: HEK293
- Sequence (P35222 whole entry): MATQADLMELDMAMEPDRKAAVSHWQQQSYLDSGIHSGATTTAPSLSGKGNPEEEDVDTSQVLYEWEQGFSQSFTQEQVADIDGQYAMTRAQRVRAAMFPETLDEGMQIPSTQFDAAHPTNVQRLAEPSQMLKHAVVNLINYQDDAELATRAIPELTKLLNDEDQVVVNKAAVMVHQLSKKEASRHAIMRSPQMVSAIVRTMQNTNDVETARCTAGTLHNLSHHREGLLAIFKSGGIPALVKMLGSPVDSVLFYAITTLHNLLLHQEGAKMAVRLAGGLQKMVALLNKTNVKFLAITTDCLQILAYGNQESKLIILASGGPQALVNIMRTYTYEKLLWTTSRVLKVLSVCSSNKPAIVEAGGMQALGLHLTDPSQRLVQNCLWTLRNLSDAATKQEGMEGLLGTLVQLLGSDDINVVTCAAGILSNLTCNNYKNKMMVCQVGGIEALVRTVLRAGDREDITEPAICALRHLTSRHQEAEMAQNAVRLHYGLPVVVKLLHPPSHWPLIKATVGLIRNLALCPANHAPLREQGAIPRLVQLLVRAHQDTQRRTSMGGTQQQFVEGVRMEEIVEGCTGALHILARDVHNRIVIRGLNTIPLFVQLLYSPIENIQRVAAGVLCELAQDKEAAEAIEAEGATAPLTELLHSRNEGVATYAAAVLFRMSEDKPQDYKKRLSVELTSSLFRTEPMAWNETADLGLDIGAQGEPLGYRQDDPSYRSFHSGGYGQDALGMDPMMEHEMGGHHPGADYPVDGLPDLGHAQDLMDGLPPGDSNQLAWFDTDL
- method: Nano-BRET target engagement assay (B-cat-Halo & TCF4-Luc in HEK293 cells)
- Format: cell-based
- condition.notes: absolute IC50; read-out: NanoBRET Abs IC50
quantity.measured: IC50 (µM)
Write it as a number; the unit µM goes unstated.

compound: CC(=O)N1CCC[C@]12CC=CCCCC1(CCCC=CCCCCCC[C@@](C)(C(=O)N[C@@H](Cc3ccccc3)C(=O)N[C@@H](Cc3csc4ccccc34)C(=O)N[C@@H](CCC(N)=O)C(N)=O)NC(=O)[C@H](CC(C)C)NC(=O)[C@H](Cc3ccccc3)NC(=O)[C@H](C)NC(=O)[C@H](C)NC(=O)[C@H](CCC(=O)O)NC(=O)[C@H](CC(=O)O)NC1=O)NC(=O)[C@H](CCO)NC(=O)[C@H](CC(=O)O)NC2=O (stereo partly drawn)
value.observed: 37.9

Here is the next item to consider.
For the compound CC(=O)N1CC2CC1C(=O)N[C@@H](CC(=O)O)C(=O)N[C@@H](CC(C)(C)C)C(=O)NC1(CCCC=CCCCOC(=O)N3CC[C@@](C(=O)N[C@@H](Cc4ccccc4Cl)C(=O)N[C@@H](Cc4csc5ccccc45)C(=O)N[C@@H](CCC(N)=O)C(N)=O)(C3)NC(=O)[C@H]([C@@H](C)O)NC(=O)[C@H](Cc3ccccc3)NC(=O)[C@H](C)NC(=O)[C@H](C)NC(=O)[C@H](CN(CC(=O)O)CC(F)(F)F)NC(=O)[C@H](CC(=O)O)NC1=O)CCCC=CCCC(=O)O2 (stereo partly drawn) , the measured IC50 on beta-catenin/TCF4 engagement (Homo sapiens) was 29.8

Source: patent US20240116985A1
